Taken from the supplement of paper PMC5908809.

So I've got a bunch of molecules here, and I need their percent inhibition of viability values.
- System: normal primary NK cells, pool 1 (3 donors), resting (IL-2 0 ng/mL);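 also: normalised to DMSO-only wells as negative and benzethonium chloride as positive control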
- assay-summary: percent inhibition of viability; higher = more inhibition
- assay-context: 72 h; 10 nM
Expressed in %, but write only the number.

With normal primary NK cells, pool 1 (3 donors), resting (IL-2 0 ng/mL) as the test system, C[C@@H](Oc1cc(-c2cnn(C3CCNCC3)c2)cnc1N)c1c(Cl)ccc(F)c1Cl [Crizotinib] (max concentration tested 1000 nM) showed percent inhibition of viability of -1.32

With normal primary NK cells, pool 1 (3 donors), resting (IL-2 0 ng/mL) as the test system, C[C@@H]1CN(Cc2ccc(F)cc2)[C@@H](C)CN1C(=O)c1cc2c(C(=O)C(=O)N(C)C)cn(C)c2cc1Cl [Talmapimod] (max concentration tested 10000 nM) showed percent inhibition of viability of -6.9

With normal primary NK cells, pool 1 (3 donors), resting (IL-2 0 ng/mL) as the test system, COc1cc(N2CCN(C)CC2)ccc1Nc1nccc(-c2cn(C)c3cnccc23)n1 [AZ191] (max concentration tested 10000 nM) showed percent inhibition of viability of -14.6
